TARGET OR SYSTEM: human EP3 receptor (Homo sapiens, UniProt P43115)
Sequence (P43115 whole entry): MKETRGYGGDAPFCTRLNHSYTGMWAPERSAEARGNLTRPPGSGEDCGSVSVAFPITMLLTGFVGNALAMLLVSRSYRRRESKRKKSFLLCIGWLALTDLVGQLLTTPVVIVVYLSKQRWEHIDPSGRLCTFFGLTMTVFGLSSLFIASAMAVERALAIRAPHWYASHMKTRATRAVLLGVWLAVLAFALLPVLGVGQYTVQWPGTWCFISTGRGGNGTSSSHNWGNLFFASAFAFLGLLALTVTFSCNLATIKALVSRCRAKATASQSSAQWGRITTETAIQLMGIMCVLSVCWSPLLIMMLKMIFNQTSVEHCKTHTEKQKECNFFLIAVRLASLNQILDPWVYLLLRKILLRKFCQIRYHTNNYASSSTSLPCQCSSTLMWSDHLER
PROTOCOL NOTES: Cellular in vitro assay for determining EP3 receptor activity (human EP3 cell line, sulprostone-stimulated calcium luminescence)
CONDITION SET: CHO cells expressing human EP3 and mitochondrial Clytin; antagonist mode, sulprostone at EC50; read-out: EP3 CHO mtCLY ANTAG IC50
pIC50: −log10 of the molar value.
RESULT TYPE: pIC50

INSERT INTO results (compound, target_or_system, recorded_result) VALUES
  ('Cc1cccc(C)c1OCC(C)NC(=O)c1cc2c(=O)[nH]c(-c3ccc4ccccc4c3)cn2n1 (stereo not drawn) [Example 2-30]', 'human EP3 receptor (Homo sapiens, UniProt P43115)', 8.26),
  ('Cc1cccc2ncc(-c3cn4nc(C(=O)NC(C)c5ccc(F)cc5)c(C(C)C)c4c(=O)[nH]3)cc12 (stereo not drawn) [Example 4-11]', 'human EP3 receptor (Homo sapiens, UniProt P43115)', 9.13),
  ('Cc1ccc(-c2[nH]c(=O)c3c(C(F)(F)F)c(C(=O)N[C@H](CCO)c4ccc(F)cc4)nn3c2C)cc1C [Example 1-122]', 'human EP3 receptor (Homo sapiens, UniProt P43115)', 8.38),
  ('Cc1ccc(-c2cn3nc(C(=O)NC(C)c4ccc(F)cc4)cc3c(=O)[nH]2)cc1C (stereo not drawn) [Example 5-1]', 'human EP3 receptor (Homo sapiens, UniProt P43115)', 8.17),
  ('CCN1CCC(NC(=O)c2nn3cc(-c4ccc(C)c(F)c4)[nH]c(=O)c3c2C2CC2)(C(F)(F)F)C1 (single isomer, unassigned) [6-405]', 'human EP3 receptor (Homo sapiens, UniProt P43115)', 8.33),
  ('Cc1c(C(=O)N[C@@H](CO)c2ccccc2)nn2c(C)c(-c3ccc4ccccc4c3)[nH]c(=O)c12 [Example 3-71]', 'human EP3 receptor (Homo sapiens, UniProt P43115)', 8.02),
  ('Cc1ccc(-c2cn3nc(C(=O)N[C@@H](C)CO)c(C4CCC4)c3c(=O)[nH]2)cc1C [6-578]', 'human EP3 receptor (Homo sapiens, UniProt P43115)', 8.64),
  ('Cc1ccc(-c2cn3nc(C(=O)NC[C@]4(C5CC5)NC(=O)NC4=O)c(C4CC4)c3c(=O)[nH]2)cc1C [6-457]', 'human EP3 receptor (Homo sapiens, UniProt P43115)', 8.33),
  ('CC(NC(=O)c1cc2c(=O)[nH]c(-c3ccc4ccccc4c3)cn2n1)c1ccc(Cl)c(Cl)c1 (stereo not drawn) [Example 2-51]', 'human EP3 receptor (Homo sapiens, UniProt P43115)', 8.69),
  ('Cc1ccc(-c2cn3nc(C(=O)NCc4ncc(C(F)(F)F)cc4Cl)cc3c(=O)[nH]2)cc1C [6-9]', 'human EP3 receptor (Homo sapiens, UniProt P43115)', 8.24),
  ('Cc1ccc(-c2cn3nc(C(=O)NC(CN(C)C)c4ccc(F)cc4)c(C4CC4)c3c(=O)[nH]2)cc1C (single isomer, unassigned) [6-445]', 'human EP3 receptor (Homo sapiens, UniProt P43115)', 8.15),
  ('Cc1cc(-c2cn3nc(C(=O)NC(C)(C)C4CC4)c(C(F)(F)F)c3c(=O)[nH]2)ccc1Cl [6-220]', 'human EP3 receptor (Homo sapiens, UniProt P43115)', 8.93),
  ('Cc1cccc2ncc(-c3cn4nc(C(=O)NCc5ccncc5)c(C(C)C)c4c(=O)[nH]3)cc12 [Example 4-25]', 'human EP3 receptor (Homo sapiens, UniProt P43115)', 8.49),
  ('CN1CC(NC(=O)c2nn3cc(-c4ccc5ccccc5c4)[nH]c(=O)c3c2Cl)(c2ccc(F)cc2)C1 [Example 1-119]', 'human EP3 receptor (Homo sapiens, UniProt P43115)', 8.48),
  ('Cc1ccc(-c2cn3nc(C(=O)N[C@@H](c4ccc(F)cc4)C(C)(C)O)c(C)c3c(=O)[nH]2)c(F)c1C [Example 1-164]', 'human EP3 receptor (Homo sapiens, UniProt P43115)', 8.54);

Provenance of the data: patent US20220324865A1
